# method_description: in vitro
# Type: in vitro ADME, mouse
# experimental_setup: mouse, microsomes; MLM (male CD-1) 0.50 mg/mL, NADPH 1 mM, 1 μM compound, pH 7.4, 37° C., 60 min; read-out: Intrinsic clearance (Clint)
Some molecules, each annotated with its measured microsomal CLint.
measured_metric: microsomal CLint

- CC[C@@H](C)NC(=O)[C@H]1C=C2c3cccc4[nH]cc(c34)C[C@H]2N(Cc2ccccc2)C1 [Compound 88a]: 837 µL/min/mg
- CCCN(CC)C(=O)[C@H]1C=C2c3cccc4[nH]cc(c34)C[C@H]2N(Cc2ccccc2)C1 [Compound 86a]: 1010 µL/min/mg
- CCNC(=O)[C@@H]1C=C2c3cccc4[nH]cc(c34)C[C@H]2N(Cc2cccc(O)c2)C1 [Compound 64]: 312 µL/min/mg
- CC[C@@H](C)NC(=O)[C@@H]1C=C2c3cccc4[nH]cc(c34)C[C@H]2N(Cc2cccc(OC)c2)C1 [Compound 95]: 2020 µL/min/mg

---

# target_or_system: UniProtKB P28223
# method_description: cell-based
# Format: cell-based
# Parameters: expressed in transfected cells; host or cells: HEK293, stably transfected
# experimental_setup: agonist, Ca2+ flux, HEK293
pEC50: −log10 of the molar value.
measured_metric: pEC50

• CCN(CC)C(=O)[C@@H]1C=C2c3cccc4[nH]cc(c34)C[C@H]2N(CC2CCCCC2)C1 [Compound 89] = 6.08
• CCN(CC)C(=O)[C@@H]1C=C2c3cccc4[nH]cc(c34)C[C@H]2N(CC2CCCC2)C1 [Compound 90] = 6.19
• CCN(CC)C(=O)[C@@H]1C=C2c3cccc4[nH]cc(c34)C[C@H]2N(Cc2cccc(O)c2)C1 [Compound 62] = 6.04
• CC[C@@H](C)NC(=O)[C@@H]1C=C2c3cccc4[nH]cc(c34)C[C@H]2N(Cc2ccccc2)C1 [Compound 88] = 6.46

---

# method_description: in vitro
# Assay type: in vitro ADME, mouse
# experimental_setup: mouse, microsomes; MLM (male CD-1) 0.50 mg/mL, NADPH 1 mM, 1 μM compound, pH 7.4, 37° C., 60 min; read-out: half-life (t1/2)
Label yes for high-side half-life (at or above 3 min) and no for low-side half-life (below it).

• CCN(C)C(=O)[C@@H]1C=C2c3cccc4[nH]cc(c34)C[C@H]2N(Cc2ccccc2)C1 = yes
• CCCN(CC)C(=O)[C@@H]1C=C2c3cccc4[nH]cc(c34)C[C@H]2N(Cc2ccccc2)C1 = yes
• CN(C)C(=O)[C@@H]1C=C2c3cccc4[nH]cc(c34)C[C@H]2N(Cc2ccccc2)C1 = yes
• C[C@H]1C[C@H](C)N1C(=O)[C@@H]1C=C2c3cccc4[nH]cc(c34)C[C@H]2N(Cc2ccccc2)C1 = no
• CCN(CC)C(=O)[C@@H]1C=C2c3cccc4[nH]cc(c34)C[C@H]2N(Cc2ccccc2C)C1 = yes
• CCN(CC)C(=O)[C@@H]1C=C2c3cccc4[nH]cc(c34)C[C@H]2N(Cc2cccc(F)c2)C1 = yes
• CCN(CC)C(=O)[C@@H]1C=C2c3cccc4[nH]cc(c34)C[C@H]2N(Cc2ccc(C)cc2)C1 = no
• CCN(CC)C(=O)[C@@H]1C=C2c3cccc4[nH]cc(c34)C[C@H]2N(Cc2cccc3ccccc23)C1 = no
• [2H]C([2H])(c1cccc(OC)c1)N1C[C@H](C(=O)N(CC)CC)C=C2c3cccc4[nH]cc(c34)C[C@H]21 = yes
• CCN(C)C(=O)[C@H]1C=C2c3cccc4[nH]cc(c34)C[C@H]2N(Cc2ccccc2)C1 [Compound 85a] = no
• CCN(CC)C(=O)[C@@H]1C=C2c3cccc4[nH]cc(c34)C[C@H]2N(Cc2cccnc2)C1 = no
• CC[C@@H](C)NC(=O)[C@H]1C=C2c3cccc4[nH]cc(c34)C[C@H]2N(Cc2ccccc2)C1 [Compound 88a] = no
• CCN(CC)C(=O)[C@@H]1C=C2c3cccc4[nH]cc(c34)C[C@H]2N(Cc2ccc(F)c(OC)c2)C1 = yes
• CCCN(CC)C(=O)[C@H]1C=C2c3cccc4[nH]cc(c34)C[C@H]2N(Cc2ccccc2)C1 [Compound 86a] = no
• CCN(CC)C(=O)[C@@H]1C=C2c3cccc4[nH]cc(c34)C[C@H]2N(CC2CCCCC2)C1 = no
• CCN(CC)C(=O)[C@H]1C=C2c3cccc4[nH]cc(c34)C[C@H]2N(CC2CCCCC2)C1 [Compound 89a] = no

---

# target_or_system: 5-HT1A receptor (Homo sapiens)
# Construct: expressed in transfected cells; host or cells: CHO cells, stably transfected
# Sequence (P08908 whole entry): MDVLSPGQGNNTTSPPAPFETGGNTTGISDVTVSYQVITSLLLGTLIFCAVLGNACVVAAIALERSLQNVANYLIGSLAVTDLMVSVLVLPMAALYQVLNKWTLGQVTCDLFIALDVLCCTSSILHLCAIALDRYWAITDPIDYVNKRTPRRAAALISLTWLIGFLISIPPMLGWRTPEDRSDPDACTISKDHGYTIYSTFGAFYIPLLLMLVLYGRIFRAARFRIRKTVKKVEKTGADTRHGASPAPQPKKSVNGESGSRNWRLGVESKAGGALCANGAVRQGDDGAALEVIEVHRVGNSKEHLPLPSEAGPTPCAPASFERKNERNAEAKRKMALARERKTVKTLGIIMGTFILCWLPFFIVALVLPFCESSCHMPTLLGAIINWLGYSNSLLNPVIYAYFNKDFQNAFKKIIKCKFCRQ
# method_description: cell-based
# experimental_setup: CHO, agonist, Ca2+ flux, CHO cells with Gα15, max dose; read-out: 5-HT1A % Act @ Max Dose
Emax vs 70%: at or above is Condition met, below is Condition not met.

- CCCN1C[C@H](C(=O)N2[C@@H](C)C[C@@H]2C)C=C2c3cccc4[nH]cc(c34)C[C@H]21: Condition met
- CC[C@@H](C)NC(=O)[C@@H]1C=C2c3cccc4[nH]cc(c34)C[C@H]2N(CCC(F)(F)F)C1: Condition not met
- CCN(CC)C(=O)[C@@H]1C=C2c3cccc4[nH]cc(c34)C[C@H]2N(Cc2ccccn2)C1: Condition not met
- CCN(CC)C(=O)[C@@H]1C=C2c3cccc4[nH]c(Br)c(c34)C[C@H]2N(CCC(F)(F)F)C1: Condition not met
- CCN(CC)C(=O)[C@@H]1C=C2c3cccc4[nH]cc(c34)C[C@H]2N(Cc2ccccc2O)C1: Condition not met
- C=CCN1C[C@@H](C(=O)N[C@H](C)CC)C=C2c3cccc4[nH]cc(c34)C[C@H]21: Condition met
- CCN(CC)C(=O)[C@@H]1C=C2c3cccc4[nH]c(Br)c(c34)C[C@H]2N(CCCF)C1: Condition not met
- CCN(CC)C(=O)[C@@H]1C=C2c3cccc4[nH]cc(c34)C[C@H]2N(Cc2cccc(F)c2)C1: Condition met

---

# target_or_system: 5-HT1B receptor (Homo sapiens, UniProt P28222)
# Sequence (P28222 whole entry): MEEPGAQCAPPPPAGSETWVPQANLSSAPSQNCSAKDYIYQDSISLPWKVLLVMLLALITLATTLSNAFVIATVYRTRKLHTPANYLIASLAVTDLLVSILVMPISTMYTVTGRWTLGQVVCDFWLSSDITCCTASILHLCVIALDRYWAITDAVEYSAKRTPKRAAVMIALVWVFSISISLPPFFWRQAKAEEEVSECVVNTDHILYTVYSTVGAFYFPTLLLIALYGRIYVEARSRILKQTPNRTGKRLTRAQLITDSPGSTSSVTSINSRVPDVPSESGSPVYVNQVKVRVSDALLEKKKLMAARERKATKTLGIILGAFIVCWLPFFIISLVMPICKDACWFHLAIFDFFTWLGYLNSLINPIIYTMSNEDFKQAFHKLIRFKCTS
# method_description: cAMP accumulation functional assay at 5-HT1B
# experimental_setup: agonist, cAMP accumulation
pEC50: −log10 of the molar value.
Listed below: pEC50 values for each entry.
measured_metric: pEC50

- CCN(CC)C(=O)[C@@H]1C=C2c3cccc4[nH]cc(c34)C[C@H]2NC1: 7.56
- CCNC(=O)[C@@H]1C=C2c3cccc4[nH]cc(c34)C[C@H]2N(Cc2cccc(O)c2)C1: 5.35
- CCN(CC)C(=O)[C@@H]1C=C2c3cccc4[nH]cc(c34)C[C@H]2N(Cc2ccncc2)C1: 6.72
- CCN(CC)C(=O)[C@@H]1C=C2c3cccc4[nH]cc(c34)C[C@H]2N(Cc2cccnc2)C1: 6.24
- CCN(CC)C(=O)[C@@H]1C=C2c3cccc4[nH]cc(c34)C[C@H]2N(Cc2cccc(C#N)c2)C1: 5.83
- CCN(CC)C(=O)[C@@H]1C=C2c3cccc4[nH]cc(c34)C[C@H]2N(Cc2ccccc2)C1: 6.00
- CCN(CC)C(=O)[C@@H]1C=C2c3cccc4[nH]cc(c34)C[C@H]2N(Cc2cocn2)C1: 5.86

---

Items are presented alongside their recorded Emax.
# target_or_system: 5-HT2A receptor (Homo sapiens)
# Sequence (P28223 whole entry): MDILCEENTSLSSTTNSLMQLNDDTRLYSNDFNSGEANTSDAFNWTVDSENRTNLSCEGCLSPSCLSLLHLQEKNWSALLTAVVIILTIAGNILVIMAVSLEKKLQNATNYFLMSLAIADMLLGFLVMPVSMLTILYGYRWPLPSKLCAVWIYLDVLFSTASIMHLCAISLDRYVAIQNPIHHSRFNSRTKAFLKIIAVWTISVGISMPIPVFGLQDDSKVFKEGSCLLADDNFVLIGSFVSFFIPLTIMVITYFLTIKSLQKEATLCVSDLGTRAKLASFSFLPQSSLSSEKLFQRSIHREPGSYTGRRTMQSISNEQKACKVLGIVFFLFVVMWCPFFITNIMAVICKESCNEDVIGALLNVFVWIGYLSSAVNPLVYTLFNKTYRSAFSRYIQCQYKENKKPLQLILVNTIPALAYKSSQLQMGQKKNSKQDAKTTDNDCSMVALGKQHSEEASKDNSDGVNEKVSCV
# method_description: cell-based
# Assay type: cell-based
# Parameters: expressed in transfected cells; host or cells: HEK293, stably transfected
# experimental_setup: HEK293, agonist, Ca2+ flux, HEK293, max dose; read-out: 5-HT2A % Act @ Max Dose
# Experimental: Functional Assays at 5-HT2A, 5-HT2B, and 5-HT1A. Agonist activity at 5-HT2A, 5-HT2B, 5HT2C and 5-HT1A receptors was determined using a FLIPR Ca^2+ flux assay at WuXi AppTec (Hong Kong) Limited according to their standard protocols. […] 10 μL of references and compounds were then transferred from the compound plate into the cell plate and the fluorescent signal was read.
measured_metric: Emax (%)

- CCN(CC)C(=O)[C@@H]1C=C2c3cccc4[nH]cc(c34)C[C@H]2N(Cc2cccc3ccccc23)C1: 86.5
- CC[C@@H](C)NC(=O)[C@@H]1C=C2c3cccc4[nH]cc(c34)C[C@H]2N(Cc2ccccc2)C1: 73.6
- COc1cccc(CN2C[C@H](C(=O)N3[C@@H](C)C[C@@H]3C)C=C3c4cccc5[nH]cc(c45)C[C@H]32)c1: 30.4
- CCN(CC)C(=O)[C@@H]1C=C2c3cccc4[nH]cc(c34)C[C@H]2N(CC2CCCC2)C1: 55.8

---

// reported microsomal CLint for each item listed
# method_description: in vitro
# Assay type: in vitro ADME, mouse
# experimental_setup: mouse, microsomes; MLM (male CD-1) 0.50 mg/mL, NADPH 1 mM, 1 μM compound, pH 7.4, 37° C., 60 min; read-out: Intrinsic clearance (Clint)
# Source text: MLM Stability Pooled MLM from male CD-1 mice (BIOIVT M00501) were used.
measured_metric: microsomal CLint (µL/min/mg)

• CCCN(CC)C(=O)[C@@H]1C=C2c3cccc4[nH]cc(c34)C[C@H]2N(Cc2ccccc2)C1 = 380
• O=C([C@H]1C=C2c3cccc4[nH]cc(c34)C[C@H]2N(Cc2ccccc2)C1)N1CCCC1 [Compound 84a] = 784
• CCN(CC)C(=O)[C@@H]1C=C2c3cccc4[nH]cc(c34)C[C@H]2N(Cc2ncco2)C1 = 83.3
• CCN(CC)C(=O)[C@H]1C=C2c3cccc4[nH]cc(c34)C[C@H]2N(CC2CCCC2)C1 [Compound 90a] = 712
• CCN(CC)C(=O)[C@@H]1C=C2c3cccc4[nH]cc(c34)C[C@H]2N(Cc2ccccc2C)C1 = 426
• CCN(CC)C(=O)[C@H]1C=C2c3cccc4[nH]cc(c34)C[C@H]2N(CC2CCCCC2)C1 [Compound 89a] = 743
